Tested on: Caco-2
protocol_notes: Cytotoxicity against human Caco-2 cells after 24 hrs by ATPLite assay
Type: functional, cell-based
setup_conditions: Caco-2, 24 h
endpoint: IC50 (µM)
Record the value in µM, omitting the unit from your answer.

Inquiry: Give Caco-2 IC50 for COc1ccc(C/C=C/CCCCc2ccc(O)cc2)cc1
Reply text: 44.8

Inquiry: Give Caco-2 IC50 for COc1cc(/C=C/C(=O)CC(=O)/C=C/c2ccc(O)c(OC)c2)ccc1O
Reply text: 48.6

====

System: PC-3
protocol_notes: Cytotoxicity against human PC3 cells after 24 hrs by ATPLite assay
Format: functional, cell-based
setup_conditions: PC-3, 24 h
I'd be grateful if you could share measured IC50 for these entries.

Inquiry: Give PC-3 IC50 for COc1ccc(C/C=C/CCCCc2ccc(O)cc2)cc1
Reply text: 23.6 µM

Inquiry: Give PC-3 IC50 for COc1cc(/C=C/C(=O)CC(=O)/C=C/c2ccc(O)c(OC)c2)ccc1O
Reply text: 22.7 µM

This collection of values is drawn from ChEMBL document CHEMBL1157090.
